System: HL-60(TB) leukemia
Assay: NCI-60 one-dose screen, 48 h
Settings: 10 µM unless noted
Method: Growth inhibition of the HL-60(TB) human tumor cell line is measured as a screen for anti-cancer activity. Cells are grown in 96 well plates and exposed to the test compound for 48 hours. Compounds are tested at a single concentration, which is 10^-5 M for most compounds. The reported endpoint is percent growth (GI% or GIPRCNT), where numbers from 0 - 100% represent growth inhibition, and numbers from -100% - 0 represent cell death. For example, a value of 40 represents 60% growth inhibition. […]
The panel holds about 83,000 compounds, 20% with a hit somewhere; the sample as a whole holds those more often. The source made the active and inactive calls. The calls were made as follows: active = growth percent below 10; inactive = the rest.
Choose the fitting class; nothing outside active, inactive is accepted.

Prompt: Please indicate how the test categorized CNC(=O)c1c(NC(=O)c2ccccc2C(F)(F)F)sc2c1CCC(=O)C2 .
Completion: active

Prompt: Now the compound Cc1ccsc1[C@H]1c2[nH]c3ccccc3c2C[C@H]2C(=O)N(CCCCCCC(=O)NO)CC(=O)N12
Completion: inactive

Prompt: Now the compound CCN(CC)CCCC(C)NCC(=O)NC(c1ccc2c(c1)OCO2)c1cc(Cl)c2cccnc2c1O (stereo not drawn)
Completion: active

Prompt: Now the compound Cc1ccc(-n2c(/C=C3\C(=O)Nc4ccccc43)ccc2CO)cc1
Completion: inactive

Prompt: Now the compound CC1=C(C)C(=O)C(Nc2cccc(C)c2)=C(Br)C1=O
Completion: inactive

Prompt: Now the compound C=C1CC[C@H]2[C@@](C)(CCC3OC(c4ccc(OCc5cn(C6CC(OC(C)=O)C(OC(C)=O)C(COC(C)=O)O6)nn5)cc4)OC[C@]32C)[C@@H]1/C=C/C1=CCOC1=O (stereo partly drawn)
Completion: inactive

Prompt: Now the compound Fc1ccc(-c2cc3nc(C(Cl)Cl)nc(-c4ccco4)n3n2)cc1
Completion: active

Prompt: Now the compound O=S(=O)(Nc1ccc(C2CC2)cc1)c1ccc(-c2cnc(C3CC3)o2)cc1
Completion: inactive

Prompt: Now the compound N#Cc1nc(-c2ccccc2)oc1N1CC[C@@H](CO)C1
Completion: inactive

Prompt: Now the compound CCCCCCCCNC(=O)c1ccc(Cn2c(CCCC)nc3c(N)nc4ccccc4c32)cc1
Completion: active

Prompt: Now the compound CC(C)c1nn(-c2ccccc2)c(N2CCCCC2)c1/C=N/NC(N)=S
Completion: inactive

Prompt: Now the compound NC(=O)c1c(NC(=O)c2cccc(C(F)(F)F)c2F)sc2c1CCC(=O)C2
Completion: inactive

Prompt: Now the compound COc1ccc(NC(=O)CCCCCCNC(=O)C(O)(O)C(F)(F)F)cc1
Completion: inactive

Prompt: Now the compound O=C(NNc1nc2cc(F)cc(F)c2n2cccc12)c1ccncn1
Completion: active

Prompt: Now the compound Oc1ccccc1-c1nnc(SCc2ccc(O)c3ncccc23)n1-c1ccccc1
Completion: active

Prompt: Now the compound NS(=O)(=O)c1ccc(Nc2nc(N/N=C/c3ccc4c(c3)OCO4)nc(Nc3ccccc3)n2)cc1
Completion: inactive

Prompt: Now the compound O=C(/C=C/c1cn(-c2ccccc2)nc1-c1ccc(Cl)cc1)c1cc2ccccc2oc1=O
Completion: inactive

Prompt: Now the compound CCCCCc1ccc(S(=O)(=O)Nc2cccc(-c3csc(NCCN4CCN(C)CC4)n3)c2)cc1
Completion: active

Prompt: Now the compound c1ccc2c(NCCCN3CCOCC3)c3oc4ccccc4c3nc2c1
Completion: active

Prompt: Now the compound Nc1nc(N)c2c(n1)NC(c1ccc(F)cc1)CC(c1ccc(Nc3nc(NCCO)nc(Nc4ccc(Cl)cc4)n3)cc1)=N2 (stereo not drawn)
Completion: active

Prompt: Now the compound Cc1ccc2c(n1)C(=O)C(Cl)=C(Nc1ccccc1C(=O)OC(C)(C)C)C2=O
Completion: active

Prompt: Now the compound O=C(NCc1ncc[nH]1)c1ccc(-c2nc3ccc4[nH]ncc4c3c3c2CCCC3)cc1
Completion: active

Prompt: Now the compound Cc1ccc(/C=C/CC(=O)Nc2ccc(C(=O)Nc3ccc(F)cc3N)nc2)cn1
Completion: active

Prompt: Now the compound COc1ccc([C@@H]2C(=O)N(c3cc(OC)c(OC)c(OC)c3)[C@H]2c2ccc(OC)c(O)c2)cc1
Completion: active

Prompt: Now the compound Cc1ccc2c(n1)C(=O)C(Cl)=C(Nc1ccc(C(C)C)cc1)C2=O
Completion: active

Prompt: Now the compound CCCCCc1ccc(S(=O)(=O)Nc2cc(-c3csc(N)n3)ccc2OC)cc1
Completion: inactive

Prompt: Now the compound N#Cc1c(-c2cccs2)cc(-c2cnccn2)nc1SCC(=O)NNC(=S)Nc1ccc(F)cc1
Completion: inactive

Prompt: Now the compound O=C(/C=C/c1cc(Cl)ccc1Cl)Nc1ncc(Cc2ccc(Cl)cc2)s1
Completion: active

Prompt: Now the compound O=C1[C@H]2Cc3c([nH]c4ccccc34)[C@@H](c3c(Cl)cccc3Cl)N2C(=O)CN1C1CCN(Cc2ccccc2)CC1
Completion: inactive

Prompt: Now the compound CC(C)(C)CC(C)(C)n1nnnc1C(Nc1ccccc1)c1cc2cccc3ccc4cccc1c4c32 (stereo not drawn)
Completion: inactive

Prompt: Now the compound Clc1ccc(-c2csc(N/N=C/c3nc4ccccc4n3C3CC3)n2)cc1
Completion: inactive

Prompt: Now the compound O=[N+]([O-])c1cc(/C=N/Nc2nc(N/N=C/c3ccc(Cl)c([N+](=O)[O-])c3)nc(N3CCCCC3)n2)ccc1Cl
Completion: inactive

Prompt: Now the compound COC[C@]12CCC(C)(C)C[C@H]1C1=CC[C@@H]3[C@@]4(C)CCCNC(C)(C)[C@@H]4CC[C@@]3(C)[C@]1(C)CC2
Completion: active

Prompt: Now the compound CCCCSC1=C(Cl)CN(c2ccc(Cl)cc2)C1=O
Completion: inactive

Prompt: Now the compound N#C/C(=C\c1ccc(-c2ccc(Cl)cc2Cl)o1)c1ccc(F)cc1
Completion: inactive

Prompt: Now the compound COc1ccc2c(c1)c(-c1nn3cc(-c4ccncc4)nc3s1)cn2C
Completion: active

Prompt: Now the compound CC(=O)C1=C(C)NC(NNc2ccccc2)=NC1c1ccc([N+](=O)[O-])cc1 (stereo not drawn)
Completion: inactive

Prompt: Now the compound COc1cc(OC)c(S(N)(=O)=O)cc1C(=O)/C=C/c1ccc(Cl)cc1
Completion: active
